Hello, the source for this data is PubChem BioAssay, in case you need it.

Target: Fibroblast growth factor 2 (Homo sapiens)
Assay: FGF2 binders on small-molecule microarrays, primary screen, biochemical, small-molecule microarray, 635/667 nm fluorescence (AID 1133)
Settings: small-molecule microarray binding, FGF2, fluorescence 635/667; higher = more signal
Quick rule: composite z-score of at least 0.7 means True, below that means False.

The following molecules have reported results that may help.
molecule	label-class
CC(C)CON=C1C[C@@H](O)[C@@H](O)[C@@H]2[C@@H]3C(=O)N(C[C@@H]4CCCO4)C(=O)[C@@H]3CC[C@H]12	True
CCOC(=O)C[C@H]1[C@H](OC(=O)c2cc3ccccc3oc2=O)[C@@H](NC(=O)c2ccc3ccccc3n2)c2cc(OCCCO)ccc2N1C(=O)c1ccccc1	True
CCN1C(=O)[C@H]2[C@H]3[C@H](O)[C@H](O)CC(=NOC(C)CN4CCCCc5nc(C)c(C)cc54)[C@@H]3CC[C@H]2C1=O (some centres undefined)	False
CN(C)CCCNC(=O)[C@@H]1c2ccccc2C(=O)N(Cc2ccccc2)[C@H]1c1ccc(CO)cc1	False

Lookup: Given `COc1ccc(O[C@H]2C=C[C@@H](c3ccccc3)O[C@@H]2COC(=O)CCC(C)=NO[C@H](C)c2cn([C@@H]3COC[C@H]3O)nn2)cc1` , state whether its composite z-score is at least 0.7.
Found: False

Lookup: Another molecule: `CC(C)=CCCC(C)=CCON=C1C[C@@H](O)[C@@H](O)[C@@H]2[C@@H]3C(=O)N(C[C@@H]4CCCO4)C(=O)[C@@H]3CC[C@@H]12`
Found: True

====

Reported composite z-score by item:
Assay: small-molecule microarray binders of probe aEGFR, primary screen, biochemical, biotinylated probe, 635/667 nm fluorescence (AID 1097);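 also: probe is a biotinylated anti-EGFR antibody binding compounds printed on slides; score combines fluorescence near 667 nm and signal to noise of each spot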
Conditions: higher = more signal
Quick one: just the number, no unit, thanks!

# example entries with known answers
compound	composite z-score
COC(=O)c1c(CC[C@@H](CO)NC(=O)N[C@H](Cc2ccccc2)Cn2cc(-c3ccccc3N)nn2)oc(C(C)=O)c1C(=O)OC	0.195
CCc1cc2c(nc1CC)CCN(CCC(C)=NOC(C)CN1CCCc3nc(C)c(C)cc31)C2 (stereo not drawn)	0.391
COCCOC(=O)N1C(=O)[C@@]2(c3cc(C#CCNC(N)=O)ccc31)[C@H](c1ccc(O)cc1)N1[C@H](c3ccccc3)[C@H](c3ccccc3)OC(=O)[C@H]1[C@@H]2C(=O)N1CCCCCCC1	0.0396
CC(=O)OC[C@H]1O[C@@H](ON=C(C)CCN2CCc3nc(-c4ccccc4)c(-c4ccccc4)cc3C2)[C@H](OC(C)=O)[C@@H](OC(C)=O)[C@@H]1OC(C)=O	0.0291
CCN1C(=O)[C@H]2[C@H]3[C@H](O)[C@H](O)CC(=NOC(C)CN4CCCCc5nc(C)c(C)cc54)[C@@H]3CC[C@H]2C1=O (stereo partly drawn)	0.126
CC1CC/C=C\[C@H]2OC34C=CCN(C(C)C)C(=O)[C@H]3N(CCCO)C(=O)[C@@H]4C2C(=O)O1 (stereo partly drawn)	-0.214

Lookup: What value of measured composite z-score is listed for `CCCNC(=O)OC[C@H]1O[C@H](CCON=C[C@@H](OC)[C@H](C)C=CCC(=O)OC)C=C[C@@H]1Oc1ccc(OC)cc1` ?
Found: -0.136

Lookup: Further, for `CCOC(=O)NN=C1C[C@@H](O)[C@@H](O)[C@@H]2[C@@H]3C(=O)N(C[C@@H]4CCCO4)C(=O)[C@@H]3CC[C@@H]12` ?
Found: -0.0681
